Hello, the source for this data is patent US9573913B2, in case you need it.

Target: human cathepsin K (UniProt P43236)
Assay: Cathepsin K Assay (hrbCat K)
Format: biochemical
Settings: Z-Leu-Arg-AMC substrate, pH 5.5, 15 min preincubation; read-out: hrbCat K (IP (nM))
RESULT_TYPE: IC50 (nM)

Below, each entry is followed by its recorded IC50 result.
COc1cnc(-c2nc([C@@H]3CCCC[C@H]3C(=O)NC3(C#N)CC3)c(-c3ccc(N4CCS(=O)(=O)CC4)cc3)s2)c(OC)c1 ... 45.1
N#CC1(NC(=O)[C@@H]2CCCC[C@H]2c2nc(Nc3ccc(F)cc3F)sc2-c2ccc(N3CCS(=O)(=O)CC3)cc2)CC1 ... 31.9
N#CC1(NC(=O)[C@@H]2CCCC[C@H]2c2nc(N3CCOC(c4ccccc4)C3)sc2-c2ccc(N3CCS(=O)(=O)CC3)cc2)CC1 (stereo partly drawn) ... 1.2
N#CC1(NC(=O)[C@@H]2CCCC[C@H]2c2nc(-c3ccc(F)cn3)sc2-c2ccc(N3CCS(=O)(=O)CC3)cc2)COC1 ... 1.7

A: CC(C)(O)C(C#N)NC(=O)[C@@H]1CCCC[C@H]1c1nc(-c2ccc(F)cn2)sc1-c1ccc(N2CCS(=O)(=O)CC2)cc1 (single isomer, unassigned)
B: N#CC1(NC(=O)[C@@H]2CCCC[C@H]2c2nc(-c3ccc(F)c(C4CCOCC4)c3)sc2-c2ccc(N3CCS(=O)(=O)CC3)cc2)CC1
IC50 comparison. Which is larger, A or B ? // output: label of the selected item A
(A: 59.5 nM, B: 2.2 nM)
